tested on: MOLM1 and UCSD/AML1 (averaged); assay: cell viability relative to DMSO control (POC); higher = less growth inhibition; settings: 1 µM; 72 h
Among all 2,100 compounds or so, about 180 (8.6%) showed an effect of 50% or more. What follows is part of a selection rich in strong results, with near analogues and random picks from the rest.
Labelling: cell viability reported below 90% becomes satisfied; at or above becomes not satisfied.

>>> category("CC(CCC(=O)O)[C@H]1CCC2C3C[C@H](O)[C@@H]4C[C@H](O)CC[C@]4(C)C3CC[C@@]21C (stereo partly drawn) [alpha-HYDROXYDEOXYCHOLIC ACID]")
"not satisfied"
>>> category("CC(C)=CCc1c(O)cc2oc(C)cc(=O)c2c1O")
"not satisfied"
>>> category("O=C(NOCC1CC1)c1ccc(F)c(F)c1Nc1ccc(I)cc1Cl")
"satisfied"
>>> category("O=C([O-])c1ccccc1O.[Na+]")
"not satisfied"
>>> category("COCC[n+]1c2c(n(Cc3cnccn3)c1C)C(=O)c1ccccc1C2=O [YM155 (Sepantronium Bromide)]")
"satisfied"
>>> category("Oc1cc(O)c2c(c1)O[C@H](c1ccc(O)c(O)c1)[C@H](O)C2")
"not satisfied"
>>> category("COC(=O)Nc1ccc(-c2nc(N3CCOCC3)c3cnn(C4CCN(C(=O)OC)CC4)c3n2)cc1")
"satisfied"
